assay: Clinical test in humans, single 30-min i.v. infusion, plasma PK; type: in vivo; settings: human, in vivo, iv, single 30-min i.v. infusion 200 μg/kg, mean
Ends that are not written are not given here.
quantity name: Cmax (ng/mL)
Please respond with the number in ng/mL and leave the unit unwritten.

I have this substance here, AMVSEFLKQAWFIENEEQEYVQTLKSSKGGPGSAVSPYPTFNPSSDV-NH2 [Peptide 1] , and I need its recorded Cmax.
1700

----------
assay: 14-day repeat dose IV toxicity study with toxicokinetic evaluation on Day 1 and Day 14 in rats; assay type: in vivo, Wistar rats; settings: rat, in vivo, iv, 10 mg/kg/day, IV 10 mg/kg/day, male, Day 14, read-out: T1/2
Ends that are not written are not given here.
quantity name: half-life (min)
Please respond with the number in min and leave the unit unwritten.

I have this substance here, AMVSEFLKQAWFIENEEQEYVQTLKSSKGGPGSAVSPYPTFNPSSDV-NH2 [Peptide 1] , and I need its recorded half-life.
7.31

----------
assay: Clinical test in humans, three 30-min i.v. infusions 8 hours apart, plasma PK; assay type: in vivo; settings: human, in vivo, iv, 100 ug/kg, three 30-min i.v. infusions 8 h apart, 100 μg/kg each, mean, read-out: AUC0-t2
Ends that are not written are not given here.
quantity name: AUC (ng·h/mL)
Please respond with the number in ng·h/mL and leave the unit unwritten.

I have this substance here, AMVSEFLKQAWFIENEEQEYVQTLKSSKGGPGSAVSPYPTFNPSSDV-NH2 [Peptide 1] , and I need its recorded AUC.
1130

----------
assay: 14-day repeat IV dose toxicity study with toxicokinetic evaluation on Day 1 and 14 in dogs; assay type: in vivo, beagle dogs; settings: dog, in vivo, iv, 10 mg/kg/day, IV 10 mg/kg/day, female, Day 1
Ends that are not written are not given here.
quantity name: C0

I have this substance here, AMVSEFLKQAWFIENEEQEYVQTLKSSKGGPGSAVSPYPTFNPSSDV-NH2 [Peptide 1] , and I need its recorded C0.
53.4 µg/mL

----------
test: Clinical test in humans, single 30-min i.v. infusion, plasma PK; format: in vivo; settings: human, in vivo, iv, 50 ug/kg, single 30-min i.v. infusion 50 μg/kg, mean
Ends that are not written are not given here.
quantity name: Vd (L/kg)
Please respond with the number in L/kg and leave the unit unwritten.

I have this substance here, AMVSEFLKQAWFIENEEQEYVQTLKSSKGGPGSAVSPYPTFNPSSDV-NH2 [Peptide 1] , and I need its recorded Vd.
0.14

----------
Experiment: PK after single intravenous injection of Peptide 1 in male rats
Parameters: species or system male Wistar (CRL: WI(Han)) rats
Conditions: rat, in vivo, single IV 0.1 mg/kg, terminal elimination phase
Experimental: Peptide 1 in blood samples collected from animals used in the studies (rat and dog) has been measured by an LC-MS/MS method. Analysis of samples collected in the pharmacokinetic study in rats was performed prior to validation of the method. […] Peptide 1 was quantifiable in all plasma samples in the study. […] Plasma samples obtained 60 minutes post dosing in Group 1 had plasma concentration of Peptide 1 below the limit of quantification.
Ends that are not written are not given here.
quantity name: AUC(0-inf)

I have this substance here, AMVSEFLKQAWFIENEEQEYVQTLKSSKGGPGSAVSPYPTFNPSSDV-NH2 [Peptide 1] , and I need its recorded AUC(0-inf).
173 ng·h/mL

----------
experiment: 14-day repeat IV dose toxicity study with toxicokinetic evaluation on Day 1 and 14 in dogs; assay type: in vivo, beagle dogs; conditions: dog, in vivo, iv, 1 mg/kg/day, IV 1.0 mg/kg/day, male, Day 14, read-out: AUC0-∞ (converted)
Ends that are not written are not given here.
quantity name: AUC(0-inf)

I have this substance here, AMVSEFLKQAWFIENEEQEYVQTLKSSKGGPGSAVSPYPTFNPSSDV-NH2 [Peptide 1] , and I need its recorded AUC(0-inf).
550 ng·h/mL

----------
assay: 14-day repeat IV dose toxicity study with toxicokinetic evaluation on Day 1 and 14 in dogs; format: in vivo, beagle dogs; settings: dog, in vivo, iv, 3 mg/kg/day, IV 3.0 mg/kg/day, male, Day 14
Ends that are not written are not given here.
quantity name: C0 (ng/mL)
Please respond with the number in ng/mL and leave the unit unwritten.

I have this substance here, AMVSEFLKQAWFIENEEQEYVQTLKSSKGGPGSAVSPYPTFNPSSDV-NH2 [Peptide 1] , and I need its recorded C0.
19900

----------
test: Clinical test in humans, single 30-min i.v. infusion, plasma PK; type: in vivo; settings: human, in vivo, iv, single 30-min i.v. infusion, range at all dose levels, read-out: GM t1/2
Ends that are not written are not given here.
quantity name: half-life

I have this substance here, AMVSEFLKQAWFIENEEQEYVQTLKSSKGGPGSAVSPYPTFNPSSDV-NH2 [Peptide 1] , and I need its recorded half-life.
0.8 to 1.6 h

----------
assay: 14-day repeat IV dose toxicity study with toxicokinetic evaluation on Day 1 and 14 in dogs; type: in vivo, beagle dogs; conditions: dog, in vivo, iv, 3 mg/kg/day, IV 3.0 mg/kg/day, female, Day 1, read-out: T1/2
Ends that are not written are not given here.
quantity name: half-life (min)
Please respond with the number in min and leave the unit unwritten.

I have this substance here, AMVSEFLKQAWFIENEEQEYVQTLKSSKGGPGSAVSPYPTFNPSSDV-NH2 [Peptide 1] , and I need its recorded half-life.
5.7

----------
test: PK after single intravenous injection of Peptide 1 in male rats; parameters: species or system male Wistar (CRL: WI(Han)) rats; settings: rat, in vivo, iv, 10 mg/kg, single IV 10 mg/kg, terminal elimination phase, read-out: T½
Ends that are not written are not given here.
quantity name: half-life

I have this substance here, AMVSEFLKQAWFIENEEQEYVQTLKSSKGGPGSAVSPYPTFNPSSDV-NH2 [Peptide 1] , and I need its recorded half-life.
10.2 min

----------
experiment: 14-day repeat dose IV toxicity study with toxicokinetic evaluation on Day 1 and Day 14 in rats; format: in vivo, Wistar rats; settings: rat, in vivo, iv, 10 mg/kg/day, IV 10 mg/kg/day, female, Day 1, read-out: Vz
Ends that are not written are not given here.
quantity name: Vd (L/kg)
Please respond with the number in L/kg and leave the unit unwritten.

I have this substance here, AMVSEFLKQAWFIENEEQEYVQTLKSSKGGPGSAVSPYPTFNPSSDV-NH2 [Peptide 1] , and I need its recorded Vd.
0.18

----------
test: 14-day repeat dose IV toxicity study with toxicokinetic evaluation on Day 1 and Day 14 in rats; assay type: in vivo, Wistar rats; conditions: rat, in vivo, iv, 10 mg/kg/day, IV 10 mg/kg/day, male, Day 1, read-out: T1/2
Ends that are not written are not given here.
quantity name: half-life (min)
Please respond with the number in min and leave the unit unwritten.

I have this substance here, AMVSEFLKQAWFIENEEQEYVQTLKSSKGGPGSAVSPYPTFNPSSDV-NH2 [Peptide 1] , and I need its recorded half-life.
7.8

----------
test: Clinical test in humans, three 30-min i.v. infusions 8 hours apart, plasma PK; format: in vivo; details: human, in vivo, iv, 100 ug/kg, three 30-min i.v. infusions 8 h apart, 100 μg/kg each, GM, read-out: AUC0-tau1
Ends that are not written are not given here.
quantity name: AUC
// unit must come after the numeric part

I have this substance here, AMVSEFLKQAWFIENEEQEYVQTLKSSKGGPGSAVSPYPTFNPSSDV-NH2 [Peptide 1] , and I need its recorded AUC.
1100 ng·h/mL

----------
Assay: Clinical test in humans, single 30-min i.v. infusion, plasma PK
Type: in vivo
Conditions: human, in vivo, iv, 200 ug/kg, single 30-min i.v. infusion 200 μg/kg, GM
Description: A total of 8 healthy subjects were included in each group. […] In these groups, 6 subjects received the active treatment (i.e. a single Peptide 1 30-min intravenous (i.v.) infusion corresponding to the above doses) and 2 received the placebo. In order to prevent any anticipated unblinding, the subjects under active treatment were recorded by the bioanalytical laboratory. […]
Ends that are not written are not given here.
quantity name: Cmax
// unit must come after the numeric part

I have this substance here, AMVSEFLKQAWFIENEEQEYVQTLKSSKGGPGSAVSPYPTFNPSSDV-NH2 [Peptide 1] , and I need its recorded Cmax.
1700 ng/mL

----------
experiment: Clinical test in humans, three 30-min i.v. infusions 8 hours apart, plasma PK; assay type: in vivo; conditions: human, in vivo, iv, three 30-min i.v. infusions 8 h apart, 200 μg/kg each, mean, read-out: Global Cmax
Ends that are not written are not given here.
quantity name: Cmax (ng/mL)
Please respond with the number in ng/mL and leave the unit unwritten.

I have this substance here, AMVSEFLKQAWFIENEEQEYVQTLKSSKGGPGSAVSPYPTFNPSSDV-NH2 [Peptide 1] , and I need its recorded Cmax.
2370

----------
assay: PK after single intravenous injection of Peptide 1 in male rats; set-up: species or system male Wistar (CRL: WI(Han)) rats; conditions: rat, in vivo, single IV 10 mg/kg, terminal elimination phase
Ends that are not written are not given here.
quantity name: AUC(0-inf) (ng·h/mL)
Please respond with the number in ng·h/mL and leave the unit unwritten.

I have this substance here, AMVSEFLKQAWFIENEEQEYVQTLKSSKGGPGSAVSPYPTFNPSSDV-NH2 [Peptide 1] , and I need its recorded AUC(0-inf).
15000
